The reported numbers originate from patent US20260091026A1.

- system-name: GST-RIPK2 fusion protein (human RIPK2 amino acids 1-310) (Homo sapiens)
- Sequence (O43353 1-310): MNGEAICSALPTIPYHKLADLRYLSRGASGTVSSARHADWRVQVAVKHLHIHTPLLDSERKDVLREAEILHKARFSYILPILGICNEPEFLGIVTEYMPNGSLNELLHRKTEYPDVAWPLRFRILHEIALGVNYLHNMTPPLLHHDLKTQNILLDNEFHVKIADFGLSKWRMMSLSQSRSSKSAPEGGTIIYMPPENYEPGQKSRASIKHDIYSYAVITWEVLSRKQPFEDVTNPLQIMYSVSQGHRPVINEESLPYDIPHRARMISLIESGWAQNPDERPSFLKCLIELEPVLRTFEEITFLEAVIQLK
- protocol: RIPK2 binding competition assay (TR-FRET, Tracer 199)
- test-context: displacement of Tracer 199 (10 nM), 45 min at 22° C.
I'd appreciate it if you could supply IC50 values for the items below.

Recorded IC50, per entry:
> print(dat)
                                   compound  readout.label         result
1  COc1cc2ncc(-n3cc(C(=O)NCc4ccccc4)cn3)n2cc1S(=O)(=O)C(C)(C)C           IC50  200 to 500 nM
2  COc1cc2ncc(-n3cc(C(=O)NCc4c(F)cc(F)cc4F)cn3)n2cc1S(=O)(=O)C(C)(C)C           IC50      > 1000 nM
3  COc1cc2ncc(-n3cc(NC(=O)[C@@H](c4ccccc4)N(C)C)cn3)n2cc1S(=O)(=O)C(C)(C)C           IC50      > 1000 nM
4  COc1cc2ncc(-n3cc(NC(C)=O)cn3)n2cc1S(=O)(=O)C(C)(C)C           IC50      > 1000 nM
5  COc1cc2ncc(-n3cc(N4CCC(c5ccccc5)C4=O)cn3)n2cc1S(=O)(=O)C(C)(C)C (single isomer, unassigned) [Example 182]           IC50      > 1000 nM

Hey, can you go through the list below and give me IC50 for every item?
1. COc1cc2ncc(-n3cc(NC(=O)C4CCC(F)(F)CC4)cn3)n2cc1S(=O)(=O)C(C)(C)C
2. COc1cc2ncc(-n3cc(NC(=O)C4(C)CCCCC4)cn3)n2cc1S(=O)(=O)C(C)(C)C
3. COc1cc2ncc(-n3cc(C(=O)NCc4ccccc4Cl)cn3)n2cc1S(=O)(=O)C(C)(C)C
4. COc1cc2ncc(-n3cc(NC(=O)N4CCCC4c4ccccc4)cn3)n2cc1S(=O)(=O)C(C)(C)C (single isomer, unassigned) [Example 179]
5. COc1cc2ncc(-n3cc(NC(=O)Cc4ccc(F)cc4Cl)cn3)n2cc1S(=O)(=O)C(C)(C)C

OUT:
["> 1000 nM", "> 1000 nM", "200 to 500 nM", "500 to 1000 nM", "500 to 1000 nM"]

Hey, can you go through the list below and give me IC50 for every item?
1. COc1cc2ncc(-n3cc(NC(=O)OC(C)(C)C)cn3)n2cc1S(=O)(=O)C(C)(C)C
2. COc1cc2ncc(-n3cc(NC(=O)Cc4ccccc4)cn3)n2cc1S(=O)(=O)C(C)(C)C
3. COc1cc2ncc(-n3cc(N(C)C(=O)Cc4ccccc4Cl)cn3)n2cc1S(=O)(=O)C(C)(C)C

OUT:
500 to 1000 nM
200 to 500 nM
> 1000 nM

Hey, can you go through the list below and give me IC50 for every item?
1. COc1cc2ncc(-n3cc(NC(=O)Cc4cccc(F)c4Cl)cn3)n2cc1S(=O)(=O)C(C)(C)C
2. COc1cc2ncc(-n3cc(NC(=O)[C@H]4CC[C@@H](O)CC4)cn3)n2cc1S(=O)(=O)C(C)(C)C

OUT:
1: 500 to 1000 nM; 2: > 1000 nM
